Hey, just so you know, these numbers are from patent US20100280227A1.

Target: T1, human BR3 extracellular domain (human, UniProt Q96RJ3 1-61)
T1 construct: biotinylated where used as tracer; also called hBR3-ECD; BR3-ECD
Assay: SPR BIAcore-2000, ECD on chip, Fab injected
Reported Property: kon (M⁻¹ s⁻¹)
# unit: M⁻¹ s⁻¹ | format: bare number

Record excerpt, results attached:
Challenge: Answer with reported kon of V3-11 Fab (Fab, V domains shown, soluble Fab in SPR) VH: EVQLVESGGGLVQPGGSLRLSCAASGFTISSNSIHWVRQAPGKGLEWVAWITPSDGNTDYADSVKGRFTISADTSKNTAYLQMNSLRAEDTAVYYCARRVCYNNLGVCAGAMDYWGQGTLVTVSS VL: DIQMTQSPSSLSASVGDRVTITCRASQDVSTAVAWYQQKPGKAPKLLIYSASFLYSGVPSRFSGSGSGTDFTLTISSLQPEDFATYYCQQTSTSPPTFGQGTKVEIKR
Response given: 21800

Challenge: State, in one line, measured kon of V3-12 Fab (Fab, V domains shown, soluble Fab in SPR) VH: EVQLVESGGGLVQPGGSLRLSCAASGFTISSNSIHWVRQAPGKGLEWVAWITPSDGNTDYADSVKGRFTISADTSKNTAYLQMNSLRAEDTAVYYCARRVCYDRARVCAGAMDYWGQGTLVTVSS VL: DIQMTQSPSSLSASVGDRVTITCRASQDVSTAVAWYQQKPGKAPKLLIYSASFLYSGVPSRFSGSGSGTDFTLTISSLQPEDFATYYCQQSYSTPPTFGQGTKVEIKR
Response given: 13000

Challenge: Specify kon for V3-13 Fab (Fab, V domains shown, soluble Fab in SPR) VH: EVQLVESGGGLVQPGGSLRLSCAASGFTISRRSIHWVRQAPGKGLEWVAWITPSDGNTDYADSVKGRFTISADTSKNTAYLQMNSLRAEDTAVYYCARRVCYSSVRGCAGAMDYWGQGTLVTVSS VL: DIQMTQSPSSLSASVGDRVTITCRASQDVSTAVAWYQQKPGKAPKLLIYGASNLYSGVPSRFSGSGSGTDFTLTISSLQPEDFATYYCQQSHASPPTFGQGTKVEIKR and stop.
Response given: 2300

Turning now to a further binder:
Challenge: For V3-1 Fab (Fab, V domains shown, soluble Fab in SPR) VH: EVQLVESGGGLVQPGGSLRLSCAASGFTISSNSIHWVRQAPGKGLEWVAWITPSDGNTDYADSVKGRFTISADTSKNTAYLQMNSLRAEDTAVYYCARRVCYNRLGVCAGGMDYWGQGTLVTVSS VL: DIQMTQSPSSLSASVGDRVTITCRASQDVSTAVAWYQQKPGKAPKLLIYSASFLYSGVPSRFSGSGSGTDFTLTISSLQPEDFATYYCQQSRITPPTFGQGTKVEIKR , write its kon.
Response given: 37300
